Values were extracted from patent US20260250318A1.

Tested on: brain
Test: NGS fold enrichment of synthetic library (passage 3) in BALB/c mice, first cross-species screen
Format: in vivo
Conditions: synthetic library passage 3, intravenous, RNA NGS, brain of BALB/c mice, relative to wild-type AAV9
Lab note: anything with Fold enrichment over AAV9 in the brain of Mice (BALB/c) at or over 0.8 fold counts as true (1); the rest go in false (0).

Worked set:
GSGSPRDSIQNQQT :: false (0)
GFNGSPSSGQNQQT :: true (1)
GSGQNQQHVSSPRT :: true (1)
GSRTLSNVGQNQQT :: false (0)
GAYGMVSSGQNQQT :: false (0)

Now consider the entry below.
// inclusive: Fold enrichment over AAV9 in the brain of Mice (BALB/c) at least 0.8 fold? input: "GSGQIRHSDQNQQT"
false (0)

====

Test system: brains, heart, liver, muscle, and DRG of the NHPs
Assay: Maturation of TTM-001 and TTM-002 capsids, NGS enrichment in NHP tissues
Type: in vivo
Conditions: NGS fold-enrichment of RNA, NHP brain, relative to AAV9 control
Description: This Example describes maturation of the AAV9 capsid variants, TTM-001 (SEQ ID NO: 981 (amino acid) and 983 (DNA), comprising SEQ ID NO: 941 (encoded by SEQ ID NO: 942)) and TTM-002 (SEQ ID NO: 982 (amino acid) and 984 (DNA), comprising SEQ ID NO: […] (encoded by SEQ ID NO: 944)) in NHPs to further enhance their transduction and biodistribution in the central nervous system as well as other tissues, and evolve the AAV capsid variants to provide further cross-species compatibility. […]
Outcome label depends on Fold Enrichment relative to AAV9, Brain (NHP) relative to 90 fold: at/above gives 1, below gives -1.

Worked cases, answers included:
KTIDGGGSPHSKAQNKQT :: -1
KTINGHDSPHKSVQNHLN :: 1
KTINGSGSPHSKALHQHT :: -1
KTELRHDSPHKSGQNQQT :: 1
KTEITSGSPHSKAQNQQT :: -1

Fold Enrichment relative to AAV9, Brain (NHP) >= 90 fold for "KNINGGGSPHSKAQNQQT" ?
-1

Hi, just wondering whether "KTFNRSGSPHSKAQNQQI" shows Fold Enrichment relative to AAV9, Brain (NHP) of 90 fold or higher.
-1

Quick check: does "KTINGPGSPHSKAHNQQT" have Fold Enrichment relative to AAV9, Brain (NHP) greater than or equal to 90 fold?
1

====

Hi there, I'd appreciate the recorded Fold enrichment over AAV9 in the spinal cord of NHPs for every entry that follows.
Tested on: brain, spinal cord, and DRG of the NHPs
Assay: NGS fold enrichment of synthetic library (passage 3) in NHPs, first cross-species screen
Type: in vivo, cynomolgus macaques (Macaca fascicularis)
Conditions: synthetic library passage 3, intravenous, RNA NGS, spinal cord of NHPs, relative to wild-type AAV9
Answers are plain numbers, in fold.

Use these answered entries as a reference point.
GMRMEYQSGQNQQT :: 3.695
GSGQRSPVLPNQQT :: 6.230
GSGQNRGISISQQT :: 2.166

Dear colleague, could you send me Fold enrichment over AAV9 in the spinal cord of NHPs for each of the items below? Thanks.
1. GSGQNQRSSGGVQT
2. GSGHSPLPQQNQQT
3. GSGLGRAPVQNQQT
4. GMYEYSQSGQNQQT
5. GSGQNQQALGSQRT
6. GSGQNQQTGQATHN
7. GRGQNQQHTGLATT
8. GPGLGSHSGQNQQT

2.056
0.556
2.214
0.000
1.934
2.199
6.174
14.563

Provide the reported Fold enrichment over AAV9 in the spinal cord of NHPs of each entry below, same order.
1. GSGQNQQTLPSLSL
2. GSGQNQQGTLLHQT
3. GMTSHSVSGQNQQT
4. GSRNGHAVGQNQQT
5. GSGQNQQLSGKSVT

1. 1.758
2. 2.065
3. 2.732
4. 2.688
5. 1.524

====

System: brain
Assay: Matured TTM-001 and TTM-002 variants, NGS enrichment in mouse brain
Assay type: in vivo, mice
Settings: NGS fold-enrichment, mouse brain, relative to AAV9 control
Please respond with reported Fold Enrichment relative to AAV9, Brain (Mouse) for every item in the list.
Answers are plain numbers, in fold.

KTVNGHDSPHKSGQNLLT :: 18.894
KTEKISGSPHSKAQNQQT :: 102.978

Here are 8 sequences. What values of Fold Enrichment relative to AAV9, Brain (Mouse) were reported for them?
1. KTTNGHDSPHKSGQTQLT
2. KTVNGHDSPHKSGQTRQT
3. KSINGHDSPHKSGQIQHT
4. KTVHGNGSPHSKAQNQQT
5. KAINGHDSPHKSGPRQQT
6. KTINGHDSPHKIGQNQHA
7. KTESRHDSPHKSGQNQQT
8. KEINGRGSPHSKAQNQQT

[17.885, 7.174, 13.872, 97.003, 8.259, 7.578, 6.975, 52.311]

Batch: Fold Enrichment relative to AAV9, Brain (Mouse) for all items listed.
1. KTINGHDSPHKSGQNKLE
2. KTIDGSGSPHSKAQNQQH

1. 12.419
2. 57.914

Hello, I would appreciate it if you could give Fold Enrichment relative to AAV9, Brain (Mouse) for each entry below.
1. KTIIGSGSPHSKAQNRHT
2. KTINAHDSPHKIGQNHQT

1: 210.515; 2: 5.074

I would be grateful if you could provide Fold Enrichment relative to AAV9, Brain (Mouse) for each of the following entries.
1. KSDQGSGSPHSKAQNQQT
2. KTINGHDSPHKSGRTQET
3. KTINGSGSPHSKAQYIHT
4. KTELWHDSPHKSGQNQQT

1. 151.911
2. 7.270
3. 59.649
4. 9.915

// each sequence listed below needs its Fold Enrichment relative to AAV9, Brain (Mouse)
1. KTETHSGSPHSKAQNQQT
2. KTINGTGSPHSKAQNHQI
3. KAINGHDSPHKSAQSQQT
4. KAIIGHESPHKSGQNQQT
5. KTFNGSGSPHSKAPNLQT

1: 57.287; 2: 54.281; 3: 14.595; 4: 8.530; 5: 168.920

Please give Fold Enrichment relative to AAV9, Brain (Mouse) for each item listed below.
1. KTFKGSGSPHSKAPNQQT
2. KTEKASGSPHSKAQNQQT
3. KTIKGQDSPHKIGQNQQT
4. KSINGYDSPHKSGQTQQT
5. KTINGSGSPHSKAQRTMT
6. KTENMSGSPHSKAQNQQT
7. KTINGHDSPHKSVQNHLN

[71.144, 90.390, 11.829, 4.497, 100.248, 130.568, 14.557]

Recorded result, "KSIKGNGSPHSKAQNQQT" , Fold Enrichment relative to AAV9, Brain (Mouse): 90.251

====

System: brain
Test: Maturation of TTM-001 capsid, NGS enrichment in brain of CD-1 Outbred mice
Assay type: in vivo
Conditions: NGS fold-enrichment of TTM-001 matured AAV capsid variants in the brain of CD-1 Outbred mice; intravenous 1.0×10^12 VG/dose; 14 days in life; RNA; relative to non-matured TTM-001 control
Kindly state Fold enrichment over TTM-001 for each of the entries shown.
Numbers only, in fold.

KTINGSMSPHRKAQNQQT :: 2.251

Provide Fold enrichment over TTM-001 values for the following items, in order.
1. KTINGSGSPHSKRATQQT
2. KTINGSGSPHSKRNLQQT
3. KTINGSGSPHSKARSKQT

[2.283, 3.210, 2.758]

Each of the following entries comes with a recorded value; kindly state Fold enrichment over TTM-001 for each.
1. KTINGIRSPHTKAQNQQT
2. KTINGSGSPHSKARRSQT
3. KTINGSWSPHMLAQNQQT (peptide inserted in AAV capsid)
4. KTINGMCSPHSKAQNQQT
5. KTINGSGSPHSKAWYPQT

1. 2.793
2. 3.493
3. 2.106
4. 2.006
5. 2.406

Batch lookup, Fold enrichment over TTM-001 per entry.
1. KTINGSGSPHSYLRNQQT
2. KTINGSGSPHSKRILQQT

1: 4.566; 2: 2.801

Below are 2 sequences. Give each one its Fold enrichment over TTM-001.
1. KTINGSGSPHSKLRMQQT
2. KTINGSLSPHIYAQNQQT

1. 2.106
2. 2.536

====

Tested on: brain
Assay: NGS fold enrichment of synthetic library (passage 3) in C57Bl/6 mice, first cross-species screen
Assay type: in vivo
Settings: synthetic library passage 3, intravenous, RNA from brain of C57Bl/6 mice, NGS, relative to wild-type AAV9
Ranges used to classify Fold enrichment over AAV9 in the brain of Mice (C57Bl/6): label 0 (below 0.6 fold), label 1 (0.6 fold to below 0.9 fold), label 2 (0.9 fold or more)

GSGQLPRQMTNQQT :: label 0
GGSHTYGGGQNQQT :: label 2

Note: place this sequence into its band. Item: "GSSREFHSGQNQQT"
label 1

Lab note: sort "GSLHAGLSGQNQQT" into the matching Fold enrichment over AAV9 in the brain of Mice (C57Bl/6) band.
label 2

Textbook exercise: identify the category of the sequence given here, "GNSQVKVSGQNQQT" , according to its measured value.
label 2

Which Fold enrichment over AAV9 in the brain of Mice (C57Bl/6) band matches "GSGQMQPHVQNQQT" ?
label 0

// return the class label for "GSGQALLSTGNQQT"
label 0

Tag the class for "GSGHPYKAAQNQQT"
label 1

Any idea which band "GPNSYPVSGQKQQT" is in?
label 1

Which bin should I file "GSGSKQNALQNQQT" under?
label 2

Lab note: which band did "GSIAMTSHGQNQQT" land in?
label 0

Category lookup for the sequence "GSGQNQQTVPSNLV"
label 0

Form: Item = "GSGQRGSLTENQQT" ; Class = ?
label 0
